B1: CPXM2 (parent)
chain: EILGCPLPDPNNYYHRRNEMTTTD

variants of: B1; assay: protein stability index of a GFP-peptide fusion (GPS, HEK-293T) (PSI 1-6); higher = more stable; details: c terminus: a fixed tail appended;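 further: lentivirally expressed fusions sorted by FACS into six bins by GFP to DsRed ratio, PSI derived from sequencing read proportions per bin multiplied by bin number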
measured endpoint: protein stability index

- P10G: 3.95
- L3W: 3.84
- T22I: 2.81
- E19K: 2.83
- P6S: 3.4
- P6N: 2.8
- N12Q: 3.73
- P10W: 2.72
- T23F: 2.43
- L7I: 3.79
- N12E: 3.85
- T22D: 4.09
- T21K: 4.37
- R17V: 3.22
- N11V: 3.38
- H15C: 2.71
- L3R: 4.3
- L3N: 3.78
- R17T: 4.19
- T23S: 3.39
- L7E: 4.08
- H15W: 2.91
